- System: Vero E6 infected with SARS-CoV-2
- runDescription: inhibition of SARS-CoV-2 cytopathic effect; higher = more antiviral protection, active = above 15
- conditionContext: 1 nM; 48 h
valueKind: inhibition of SARS-CoV-2 cytopathic effect (%)

>>> observedmeasurement("CC(C)=CCC[C@](C)(O)[C@H]1CC[C@]2(C)[C@@H]1[C@H](O)C[C@@H]1[C@@]3(C)CC[C@H](O)C(C)(C)[C@@H]3[C@@H](O)C[C@]12C")
-1.07
>>> observedmeasurement("CC[N+]1(C)CCCC(OC(=O)C(O)(c2ccccc2)c2ccccc2)C1 (stereo not drawn) [pipenzolate]")
-0.09
>>> observedmeasurement("Cc1ccc(F)cc1C(=O)Nc1ccc(C(=O)N2Cc3cccn3Cc3ccccc32)c(Cl)c1")
-2.22
>>> observedmeasurement("CN1[C@@H]2CC[C@H]1C[C@@H](OC(=O)c1c[nH]c3ccccc13)C2")
-1.26
>>> observedmeasurement("C=CCN1C[C@H](C(=O)N(CCCN(C)C)C(=O)NCC)C[C@@H]2c3cccc4[nH]cc(c34)C[C@H]21")
-19
>>> observedmeasurement("CCN1CCCC(OC(=O)C(c2ccccc2)c2ccccc2)C1 (stereo not drawn) [piperidolate]")
-8.23
>>> observedmeasurement("Cc1cc(Nc2ccc(NC(=O)c3ccc(Nc4ccnc5ccccc45)cc3)cc2)nc(N)n1")
-1.09
>>> observedmeasurement("CCCCN(Cc1ccc(C(=O)NO)cc1)C(=O)Nc1ccccc1")
0.96
>>> observedmeasurement("Nc1cccc2c1C(=O)N(C1CCC(=O)NC1=O)C2=O (stereo not drawn) [pomalidomide]")
1.4
>>> observedmeasurement("CC(C)[C@H](C(=O)Nc1ccc(C(=O)NO)cc1)c1ccccc1")
3.84
>>> observedmeasurement("CC(C)(O)CC(=O)NCCn1ccc2ncnc(Nc3ccc(Oc4cccc(C(F)(F)F)c4)c(Cl)c3)c21")
4.78
>>> observedmeasurement("NC1(c2ccc(-c3nc4ccn5c(=O)[nH]nc5c4cc3-c3ccccc3)cc2)CCC1")
-1.08
>>> observedmeasurement("OC[C@@H](O)[C@@H](O)CO")
-0.84
>>> observedmeasurement("C[N+]12CCC(CC1)C(OC(=O)C(O)(c1ccccc1)c1ccccc1)C2 (stereo not drawn)")
-2.04
>>> observedmeasurement("CNCC[C@H](Oc1cccc2ccccc12)c1cccs1")
-2.53
>>> observedmeasurement("Cc1ccc(-c2ccc(F)cc2COc2ccc(CCC(=O)O)cc2)cc1")
-2.64
>>> observedmeasurement("COC(=O)C1=C(C)NC(C)=C(C(=O)OCC(C)C)C1c1ccccc1[N+](=O)[O-] (stereo not drawn)")
-1.53
>>> observedmeasurement("CCN(CC)CCCCN1c2ccccc2Oc2ccc(Cl)cc21")
0.59
